Test system: Mycobacterium tuberculosis
assay: Antibacterial activity against rifampin/isoniazid-resistant Mycobacterium tuberculosis CSU 45 SRI 1377 by two fold serial dilution method
Assay type: functional
Non-standard residues stand in square brackets, D forms with d. Residues, ends and D or L forms follow the SMILES beside them. ξ: configuration not given here. Ac6c = NC1(C(=O)O)CCCCC1; Ac5c = NC1(C(=O)O)CCCC1; ξOrn = NCCCC(N)C(=O)O; ξDap = NCC(N)C(=O)O
In this section, each of the compounds is paired with its reported MIC.
Express the result in µM but write the number alone.

Consider the reported MIC for these compounds:
Q. What measured MIC is associated with CC(=O)NCC(=O)N[C@@H](Cc1ccccc1)C(=O)NC1(C(=O)NCC(=O)N2Cc3ccccc3CC2C(=O)N[C@H](CCCCN)C(=O)NC2(C(=O)NCC(=O)N3Cc4ccccc4CC3C(=O)N[C@H](Cc3ccccc3)C(=O)NC3(C(=O)NCC(=O)N4Cc5ccccc5CC4C(=O)NCC(=O)N[C@H](CCCCN)C(=O)N4Cc5ccccc5CC4C(=O)N[C@H](CCCCN)C(=O)N[C@H](CCCCN)C(=O)N[C@H](CCCCN)C(=O)N[C@H](CCCCN)C(N)=O)CCCCC3)CCCCC2)CCCCC1 (stereo not given in full) on Mycobacterium tuberculosis?
A. 20.7

Q. # returns recorded MIC (system: Mycobacterium tuberculosis) for CC(=O)NCC(=O)N[C@@H](Cc1ccccc1)C(=O)NC1(C(=O)NCC(=O)NC2(C(=O)NC(CCCN)C(=O)NC3(C(=O)NCC(=O)NC4(C(=O)N[C@@H](Cc5ccccc5)C(=O)NC5(C(=O)NCC(=O)NC6(C(=O)NCC(=O)NC(CCCN)C(=O)NC7(C(=O)NC(CCCN)C(=O)NC(CCCN)C(=O)NC(CCCN)C(=O)NC(CCCN)C(N)=O)CCCCC7)CCCCC6)CCCCC5)CCCCC4)CCCCC3)CCCCC2)CCCCC1 (stereo not given in full) (Ac-GF[Ac6c]G[Ac6c][ξOrn][Ac6c]G[Ac6c]F[Ac6c]G[Ac6c]G[ξOrn][Ac6c][ξOrn][ξOrn][ξOrn][ξOrn]-NH2)
A. 11.4

Q. Request - read-out MIC | tested on Mycobacterium tuberculosis | compound CC(=O)NCC(=O)N[C@@H](Cc1ccccc1)C(=O)NC1(C(=O)NCC(=O)NC2(C(=O)N[C@@H](CCCCN)C(=O)NC3(C(=O)NCC(=O)NC4(C(=O)N[C@@H](Cc5ccccc5)C(=O)NC5(C(=O)NCC(=O)NC6(C(=O)NCC(=O)N[C@@H](CCCCN)C(=O)NC7(C(=O)N[C@@H](CCCCN)C(=O)N[C@@H](CCCCN)C(=O)N[C@@H](CCCCN)C(=O)N[C@@H](CCCCN)C(N)=O)CCCC7)CCCC6)CCCC5)CCCC4)CCCC3)CCCC2)CCCC1 (Ac-GF[Ac5c]G[Ac5c]K[Ac5c]G[Ac5c]F[Ac5c]G[Ac5c]GK[Ac5c]KKKK-NH2)
A. 11.4

Q. Request - read-out MIC | tested on Mycobacterium tuberculosis | compound "CN[C@@H]1[C@H](O[C@H]2[C@H](O[C@H]3[C@H](O)[C@@H](O)[C@H](N=C(N)N)[C@@H](O)[C@@H]3N=C(N)N)O[C@@H](C)[C@]2(O)C=O)O[C@@H](CO)[C@H](O)[C@H]1O"
A. 0.8

Turning now to a further record.
Q. # value lookup — system Mycobacterium tuberculosis, readout MIC, item CC(=O)NCC(=O)N[C@@H](Cc1ccccc1)C(=O)NC1(C(=O)NCC(=O)NC2(C(=O)NC(CN)C(=O)NC3(C(=O)NCC(=O)NC4(C(=O)N[C@@H](Cc5ccccc5)C(=O)NC5(C(=O)NCC(=O)NC6(C(=O)NCC(=O)NC(CN)C(=O)NC7(C(=O)NC(CN)C(=O)NC(CN)C(=O)NC(CN)C(=O)NC(CN)C(N)=O)CCCCC7)CCCCC6)CCCCC5)CCCCC4)CCCCC3)CCCCC2)CCCCC1 (stereo not given in full) (Ac-GF[Ac6c]G[Ac6c][ξDap][Ac6c]G[Ac6c]F[Ac6c]G[Ac6c]G[ξDap][Ac6c][ξDap][ξDap][ξDap][ξDap]-NH2)
A. 49.3

====

System: Mycobacterium tuberculosis
assay: Antibacterial activity against rifampin/isoniazid-resistant Mycobacterium tuberculosis CSU 45 SRI 1377 by two fold serial dilution method
Assay type: functional
Non-standard residues stand in square brackets, D forms with d. Residues, ends and D or L forms follow the SMILES beside them. Ac6c = NC1(C(=O)O)CCCCC1; Ac5c = NC1(C(=O)O)CCCC1
metric: MIC (µM)
I only need the number, in µM, no unit after it.

Q. Please look up its MIC: CC(=O)NCC(=O)N[C@@H](Cc1ccccc1)C(=O)NC1(C(=O)NCC(=O)NC2(C(=O)N[C@@H](CCCCN)C(=O)NC3(C(=O)NCC(=O)NC4(C(=O)N[C@@H](Cc5ccccc5)C(=O)NC5(C(=O)NCC(=O)NC6(C(=O)NCC(=O)N[C@@H](CCCCN)C(=O)NC7(C(=O)N[C@@H](CCCCN)C(=O)N[C@@H](CCCCN)C(=O)N[C@@H](CCCCN)C(=O)N[C@@H](CCCCN)C(N)=O)CCCC7)CCCCC6)CCCC5)CCCCC4)CCCC3)CCCCC2)CCCC1 (Ac-GF[Ac5c]G[Ac6c]K[Ac5c]G[Ac6c]F[Ac5c]G[Ac6c]GK[Ac5c]KKKK-NH2)
A. 11.2
